target: T1, eukaryotically produced human IL-6 (human, UniProt P05231 30-212); assay: SPR; periplasmic fraction
T1 construct: also called eukIL-6; Euk IL-6
ASSAY METRIC: koff (s⁻¹)
Answers are plain numbers, in s⁻¹.

Examples from the recorded data:
BINDER	ASSAY METRIC	UNIT DESCRIPTOR	REPORTED RESULT
Fab 24G3 (Fab, V domains shown, Fab; also called 28g12(24G3)) VH: QLQVVESGGGLVQPGSSLRLSCGASGFTFSSHRMYWVRQPPGKGLEWVSAISSSGVSTYYADSVKGRFTISRDNAKNTVYLQMNSLKPEDTALYYCKRRTWYGGEYDYWGQGTQVTVSS VL: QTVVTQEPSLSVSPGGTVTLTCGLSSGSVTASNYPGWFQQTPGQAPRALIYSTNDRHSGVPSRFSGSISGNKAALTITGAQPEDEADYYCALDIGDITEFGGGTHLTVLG	koff	s⁻¹	7.52e-05
Fab 24A3 (Fab, V domains shown, Fab; also called 28f10(24A3)) VH: QVQVQESGGGLVQPGGSLRLSCAASGFTFSNYAMSWVRQAPGKGLEWVSGISFRGGMISYVDSVKGRFTISRDNAKNTLYLQMNSLKPEDTAVYYCAKNSGSSRSNALDAWGQGTLVTVSS VL: LNFMLTQPPSVSGSPGQKFTIRCTGSFRSDSYVNWYQQLPGTAPKLLINYDDRRVSGVPSRFSGSKSGNSASLTIDGLQAEDEAEYYCSFWDHTFGGHVFGGGTKLTVLG	koff	s⁻¹	7.6e-05
Fab 24D10 (Fab, V domains shown, Fab; also called pur24d10; 28f12(24D10)) VH: QLQVVESGGGLVQPGGSLRLSCAASGFTFSSYAMSWVRQAPGKGPEWVSRISSGGGSTSYADSVKGRFTISRDNAKNTLYLQMNSLKPEDTAVYYCANRAGWGMGDYWGQGTQVTVSS VL: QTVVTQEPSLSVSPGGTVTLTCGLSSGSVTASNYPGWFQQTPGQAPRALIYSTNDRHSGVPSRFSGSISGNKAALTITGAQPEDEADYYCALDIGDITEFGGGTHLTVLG	koff	s⁻¹	0.000144

Lab note: next binder to report on.
q: Fill in: koff of Fab 28B6 (Fab, V domains shown, Fab; also called 28f3(28B6)) VH: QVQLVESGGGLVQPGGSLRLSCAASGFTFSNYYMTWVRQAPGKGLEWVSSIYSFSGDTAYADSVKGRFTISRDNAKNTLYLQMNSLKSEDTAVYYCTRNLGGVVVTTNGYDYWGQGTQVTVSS VL: DIQLTQSPSSLSASLGDRVTITCQASQSISTELSWYQQKPGQTPKLLIYGASRLQTGVPARFSGSGSGTSFTLTISGLEAEDLATYYCLQDYSWPYSFGSGTRL is ___
a: 3.5e-05
